# Tested on: T-47D breast
# test: NCI tumour cell line growth inhibition, 48 h
property_label: TGI

>  <compound>
CC1=C(C#N)C2C(=C(C)N1)C(N)=Nc1ccccc12 (stereo not given)

>  <reading>
> 100 µM

$$$$
>  <compound>
O=S(=O)(O)c1ccc2c(N=Nc3cccc4ccccc34)c(O)c(S(=O)(=O)O)cc2c1

>  <reading>
> 100 µM

$$$$
>  <compound>
COC(=O)c1cc2cc(-c3ccc(OC)cc3)cnc2[nH]1

>  <reading>
> 100 µM

$$$$
>  <compound>
COc1ccc(/C=N/Nc2nc(N)nc(N3CCCC3)c2C#N)cc1

>  <reading>
89.4 µM

$$$$
>  <compound>
COc1c(-c2nc3nc(N4CCN(C)CC4)ccc3[nH]2)cc(OC)c2c1nc(CO)n2C

>  <reading>
> 100 µM

$$$$
>  <compound>
C=CCOC1=CC(=O)c2ccccc2C1=O

>  <reading>
7.85 µM

$$$$
>  <compound>
Fc1cc(-c2cc(-c3ccccc3)n[nH]2)c(Cl)cc1Cl

>  <reading>
> 100 µM

$$$$
>  <compound>
C=C1[C@@H](OC(C)=O)[C@H]2[C@@H](OC(C)=O)[C@@](C)(OC(C)=O)C[C@]2(OC(C)=O)C(=O)[C@@H](C)/C=C/C(C)(C)C(=O)C[C@H]1OC(C)=O

>  <reading>
> 100 µM

$$$$
>  <compound>
Cn1c2ccccc2c(=NNc2ccc(S(N)(=O)=O)cc2)c2ccccc21

>  <reading>
34.8 µM

$$$$
>  <compound>
COc1ccc(-c2cnoc2-c2ccc(OC)cc2O)cc1

>  <reading>
> 100 µM

$$$$
>  <compound>
CCP(=S)(CC)CCl

>  <reading>
> 100 µM

$$$$
>  <compound>
CCCCC/C=C/C(=O)CCc1ccc(O)c(OC)c1

>  <reading>
18.9 µM

$$$$
>  <compound>
N#Cc1c(-c2ccccc2)n([O-])c2ccccc2[n+]1=O

>  <reading>
83.7 µM

$$$$
>  <compound>
C=C1C(=O)O[C@H]2[C@H]1CC/C(COC(=O)NCc1ccc(Cn3c(=O)sn(CCI)c3=O)cc1)=C\CC[C@@]1(C)O[C@@H]21

>  <reading>
3.06 µM

$$$$
>  <compound>
O=C(C(Br)C(Br)c1ccccc1)C(Br)C(Br)c1ccccc1 (stereo not given)

>  <reading>
1.42 µM

$$$$
>  <compound>
CCC(/C=C(C)/C=C/C(=O)c1c(O)c(-c2ccc(O)cc2)c[nH]c1=O)CO (stereo not given)

>  <reading>
54.2 µM

$$$$
>  <compound>
Nc1ccc2nc3ccc(=O)cc-3n(-c3ccccc3)c2c1

>  <reading>
> 100 µM

$$$$
>  <compound>
CC(C)=CCc1c(O)c(CC2=C(O)C(C)=C(O)C(CC=C(C)C)(C(=O)C(C)C)C2=O)c(O)c(C(=O)C(C)C)c1O (stereo not given)

>  <reading>
33.7 µM

$$$$
>  <compound>
Oc1ccc(/C=C/c2ccc(O)cc2)cc1

>  <reading>
> 100 µM

$$$$
>  <compound>
COc1cccc(-n2ncc3c(N/N=C/c4ccc(F)cc4)ncnc32)c1

>  <reading>
> 25 µM

$$$$
>  <compound>
C[C@]12CC[C@@H]3c4ccc(O)cc4CC[C@H]3[C@@H]1CC[C@@H]2OC(=O)CCC1CCCC1

>  <reading>
28.4 µM

$$$$
>  <compound>
CNc1cc(N)ccc1C(=O)N1CCC[C@H]1CO

>  <reading>
> 100 µM

$$$$
>  <compound>
CC1CN=C(N(C)C(=O)Nc2ccc(Cl)cc2)S1 (stereo not given)

>  <reading>
65.6 µM

$$$$
>  <compound>
CC(C)(C)c1cc2c(O)c(c1)C(c1ccccc1)c1cc(C(C)(C)C)cc(c1O)Cc1cc(C(C)(C)C)cc(c1O)C(c1ccccc1)c1cc(C(C)(C)C)cc(c1O)C2 (stereo not given)

>  <reading>
> 100 µM

$$$$
>  <compound>
CC1OC(=O)C2CC3CCCCC3C(/C=C/C3CCCC(C)N3C)C12 (stereo not given)

>  <reading>
> 100 µM

$$$$
>  <compound>
Cc1ccc2nc3n(c2c1)C(c1c(F)cccc1F)SC3 (stereo not given)

>  <reading>
> 100 µM

$$$$
>  <compound>
CN1CCN(Cc2ccc(NC(=O)c3cnc(F)c(C#Cc4cnc(N)c5ncccc45)c3)cc2C(F)(F)F)CC1

>  <reading>
22.3 µM

$$$$
>  <compound>
CC(=O)OCC1OC(OC2CCCC[Si](c3ccccc3)(c3ccccc3)O2)C(OC(C)=O)C(OC(C)=O)C1OC(C)=O (stereo not given)

>  <reading>
> 100 µM

$$$$
>  <compound>
C[C@H](CCC(=O)O)[C@H]1CC[C@H]2[C@@H]3[C@@H](O)C[C@@H]4C[C@H](O)CC[C@]4(C)[C@H]3CC[C@]12C

>  <reading>
> 100 µM

$$$$
>  <compound>
O=NNc1ccc(S(=O)c2ccccc2)cn1 (stereo not given)

>  <reading>
> 100 µM

$$$$
>  <compound>
COc1ccc(N2C(=O)C3c4[nH]c5ccc(OC)cc5c4C4CCC(C(C)C)CC4C3C2=O)cc1 (stereo not given)

>  <reading>
> 100 µM

$$$$
>  <compound>
CC(C)(C)CC(C)(C)c1ccc(OCCSC(=N)N)cc1

>  <reading>
3.91 µM

$$$$
>  <compound>
Cc1ccc(N=NC(=O)NNc2ccc(C)c([N+](=O)[O-])c2)cc1[N+](=O)[O-]

>  <reading>
> 100 µM

$$$$
>  <compound>
[N-]=[N+]=NC1=CC(=O)c2cccc3cccc1c23

>  <reading>
> 100 µM

$$$$
>  <compound>
NS(=O)(=O)c1ccc(Nc2ncc(-c3ccccc3)o2)cc1

>  <reading>
> 25 µM

$$$$
>  <compound>
COc1cc(-c2cc(/C=C3\C(=O)Nc4ccc(Cl)cc43)[nH]n2)cc(OC)c1OC

>  <reading>
18.3 µM

$$$$
>  <compound>
O=CC(NC(=O)N(CCCl)N=O)C(O)C(O)C(O)CO (stereo not given)

>  <reading>
> 1250 µM

$$$$
>  <compound>
COc1ccc2c(c1)O[C@@H]1[C@@H](OC3OC(CO)C(O)C(O)C3O)Oc3cc(OC)c(OC)cc3[C@]1(O)C2=O (stereo not given in full)

>  <reading>
> 100 µM

$$$$
>  <compound>
CNc1ccc(S(=O)Nc2ccc(OC)cc2)cc1 (stereo not given)

>  <reading>
> 100 µM

$$$$
>  <compound>
COc1ccc(/C=C2\CS(=O)(=O)C/C(=C\c3ccc(OC)cc3)C2=O)cc1

>  <reading>
28.4 µM

$$$$
